Data origin, for the record: patent US9359308B2

Biological target: full length active recombinant SYK enzyme (Homo sapiens, UniProt P43405)
Construct: full length active recombinant SYK enzyme (Millipore, Calif.)
Test: Inhibition of Syk tyrosine phosphorylation activity (LANCE TR-FRET kinase assay)
Details: activity in the Syk assays, class symbols
outcome_measure: IC50

COc1cc(Nc2nc(N[C@@H]3CCCC[C@@H]3N)cnc2C(N)=O)ccn1 = 1 to 10 nM
COc1ccc(Nc2nc(N[C@@H](C(N)=O)C(C)C)cnc2C(N)=O)cn1 = 10 to 100 nM
NC(=O)c1ncc(N[C@@H]2CCCC(F)(F)[C@@H]2N)nc1Nc1cccc(-n2nccn2)c1 = 10 to 100 nM

Query block: I have this molecule here, `NC(=O)c1ncc(N[C@@H]2CCCC(F)(F)[C@@H]2N)nc1Nc1ccnc2ccccc12` , and I need its recorded IC50.
Result block: 10 to 100 nM

====

Target: full length active recombinant SYK enzyme (Homo sapiens, UniProt P43405)
Construct: full length active recombinant SYK enzyme (Millipore, Calif.)
Test: Inhibition of Syk tyrosine phosphorylation activity (LANCE TR-FRET kinase assay)
Conditions: activity in the Syk assays, class symbols
outcome_measure: IC50

NC(=O)c1ncc(NCC2(N)CC2)nc1Nc1ccc2ncccc2c1 = 1 to 10 nM
CC[C@@H](Nc1cnc(C(N)=O)c(Nc2ccnc(OC)c2)n1)C(N)=O = 10 to 100 nM
CC(C)[C@@H](Nc1cnc(C(N)=O)c(Nc2cnc3c(F)cccc3c2)n1)C(N)=O = 1 to 10 nM
CC[C@@H](Nc1cnc(C(N)=O)c(Nc2cncc(C)c2)n1)C(N)=O = 10 to 100 nM
NC(=O)c1ncc(N[C@@H](C(N)=O)c2ccccc2)nc1Nc1cnc2cccnc2c1 = 10 to 100 nM

Query block: Please state recorded IC50 (tested on full length active recombinant SYK enzyme (Homo sapiens, UniProt P43405)) of `CC(C)C[C@@H](Nc1cnc(C(N)=O)c(Nc2ccc(C3CC3)nc2)n1)C(N)=O`
Result block: 1 to 10 nM

Query block: // map `NC(=O)CNc1cnc(C(N)=O)c(Nc2ccc3ncccc3c2)n1` to recorded IC50 (system: full length active recombinant SYK enzyme (Homo sapiens, UniProt P43405))
Result block: 10 to 100 nM

Query block: What is its IC50 for full length active recombinant SYK enzyme (Homo sapiens, UniProt P43405)? Entry: `CC[C@@H](Nc1cnc(C(N)=O)c(Nc2cnn(C3CC3)c2)n1)C(N)=O`
Result block: 100 to 1000 nM

Query block: Short answer please: IC50, full length active recombinant SYK enzyme (Homo sapiens, UniProt P43405), entry `NC(=O)c1ncc(N[C@@H]2CCCC[C@@H]2N)nc1Nc1cncc(F)c1`
Result block: 1 to 10 nM

Query block: // map `NC(=O)c1ncc(N[C@@H]2CCNC2)nc1Nc1cnc2ccccc2c1` to recorded IC50 (system: full length active recombinant SYK enzyme (Homo sapiens, UniProt P43405))
Result block: 1 to 10 nM

Query block: Provide value of IC50 for this record tested with full length active recombinant SYK enzyme (Homo sapiens, UniProt P43405): `NC(=O)c1ncc(N[C@@H]2CCCC[C@@H]2N)nc1NC1CCCC1`
Result block: > 1000 nM

Query block: Lab request: please report IC50 under test system full length active recombinant SYK enzyme (Homo sapiens, UniProt P43405) for `CC(C)(C)[C@@H](Nc1cnc(C(N)=O)c(Nc2cc(C3CC3)ns2)n1)C(N)=O`
Result block: 1 to 10 nM

Query block: Report IC50 for `NC(=O)c1ncc(N[C@@H]2CCCC[C@@H]2N)nc1Nc1cnn2ccccc12` tested on full length active recombinant SYK enzyme (Homo sapiens, UniProt P43405).
Result block: < 1 nM

Query block: Any idea what IC50 came out for `Cc1ccc(Nc2nc(N[C@@H]3CCNC3)cnc2C(N)=O)cc1` on full length active recombinant SYK enzyme (Homo sapiens, UniProt P43405)?
Result block: 10 to 100 nM

Query block: Lab note: need IC50 for `NC(=O)c1ncc(N[C@@H]2CCCC[C@@H]2N)nc1N[C@@H]1CCc2ccccc21` on full length active recombinant SYK enzyme (Homo sapiens, UniProt P43405), anyone have it?
Result block: 100 to 1000 nM

Query block: Give full length active recombinant SYK enzyme (Homo sapiens, UniProt P43405) IC50 for `Cc1ccc(Nc2nc(N[C@H](CC(C)C)C(N)=O)cnc2C(N)=O)cc1`
Result block: 10 to 100 nM

Query block: Value wanted: IC50 (full length active recombinant SYK enzyme (Homo sapiens, UniProt P43405)) of entry `NC(=O)c1ncc(N[C@@H]2CCCC[C@@H]2N)nc1Nc1snc2ccsc12`
Result block: 1 to 10 nM

Query block: Entry `COc1ncc(Nc2nc(N[C@@H]3CCCC[C@@H]3N)cnc2C(N)=O)cc1C` , system full length active recombinant SYK enzyme (Homo sapiens, UniProt P43405): what IC50 was measured?
Result block: 1 to 10 nM

Query block: What measured IC50 is associated with `CC[C@@H](Nc1cnc(C(N)=O)c(Nc2cccc3cnccc23)n1)C(N)=O` on full length active recombinant SYK enzyme (Homo sapiens, UniProt P43405)?
Result block: 10 to 100 nM

====

Molecular target: full length active recombinant SYK enzyme (Homo sapiens)
Construct: full length active recombinant SYK enzyme (Millipore, Calif.)
Test: Inhibition of Syk tyrosine phosphorylation activity (LANCE TR-FRET kinase assay)
Settings: activity in the Syk assays, class symbols
IC50 for assorted molecules

NC(=O)c1ncc(N[C@@H]2CCCC[C@@H]2N)nc1Nc1ccc(C(=O)N2CCC2)nc1 [Example 280] = 10 to 100 nM
Cc1cc(Nc2nc(N[C@H](CC(F)F)C(N)=O)cnc2C(N)=O)sn1 [Example 119] = 1 to 10 nM
NC(=O)c1ncc(N[C@H](CC2CC2)C(N)=O)nc1Nc1cnc2ccccc2c1 [Example 7] = 1 to 10 nM

Then there is this molecule:
Query block: // returns reported IC50 for input CC(C)C[C@@H](Nc1cnc(C(N)=O)c(Nc2ccn(C)n2)n1)C(N)=O [Example 180]
Result block: > 1000 nM

====

Target: full length active recombinant SYK enzyme (Homo sapiens, UniProt P43405)
Construct: full length active recombinant SYK enzyme (Millipore, Calif.)
Test: Inhibition of Syk tyrosine phosphorylation activity (LANCE TR-FRET kinase assay)
Conditions: activity in the Syk assays, class symbols
outcome_measure: IC50

Answered examples (5):
NC(=O)c1ncc(NC(CC(F)(F)F)C(N)=O)nc1Nc1ccc2ncccc2c1 (centres unmarked) [Example 6] = 1 to 10 nM
CC(C)[C@@H](Nc1cnc(C(N)=O)c(Nc2ccc(OCC(F)(F)F)nc2)n1)C(N)=O [Example 327] = 100 to 1000 nM
CC[C@@H](Nc1cnc(C(N)=O)c(Nc2cc(C3CC3)ns2)n1)C(N)=O [Example 238] = 1 to 10 nM
NC(=O)c1ncc(N[C@@H]2CCOC[C@@H]2N)nc1Nc1cccc(-n2nccn2)c1 [Example 81] = < 1 nM
NC(=O)c1ncc(N[C@@H]2CCCC(F)(F)[C@@H]2N)nc1Nc1cc(C2CC2)ns1 [Example 242] = 1 to 10 nM

Query block: Checklist item: IC50 tested on full length active recombinant SYK enzyme (Homo sapiens, UniProt P43405), entry CC(C)C[C@@H](Nc1nc(Nc2cnc3ccccc3c2)cnc1C(N)=O)C(N)=O [Example 95] , value?
Result block: > 1000 nM

Query block: Reported IC50 for full length active recombinant SYK enzyme (Homo sapiens, UniProt P43405), given CC[C@@H](Nc1cnc(C(N)=O)c(Nc2snc3sccc23)n1)C(N)=O [Example 271] ?
Result block: < 1 nM

Query block: Recall the recorded IC50 for Cn1ccc2cc(Nc3nc(N[C@H](CC4CC4)C(N)=O)cnc3C(N)=O)ccc21 [Example 396] with full length active recombinant SYK enzyme (Homo sapiens, UniProt P43405) and state it.
Result block: 1 to 10 nM

Query block: Request body: readout IC50, system full length active recombinant SYK enzyme (Homo sapiens, UniProt P43405), query CC(C)c1cc(Nc2nc(N[C@H](C)C(N)=O)cnc2C(N)=O)sn1 [Example 241] . Return the value.
Result block: 1 to 10 nM

Query block: # get_value(readout= IC50, system= full length active recombinant SYK enzyme (Homo sapiens, UniProt P43405)) for COc1cncc(Nc2nc(N[C@@H]3CCCC(F)(F)[C@@H]3N)cnc2C(N)=O)c1 [Example 333]
Result block: 100 to 1000 nM

Query block: // map CC[C@@H](Nc1cnc(C(N)=O)c(Nc2ccc3cccnc3c2)n1)C(N)=O [Example 376] to recorded IC50 (system: full length active recombinant SYK enzyme (Homo sapiens, UniProt P43405))
Result block: 1 to 10 nM

Query block: Form entry - test system: full length active recombinant SYK enzyme (Homo sapiens, UniProt P43405); read-out: IC50; compound: Cc1nsc(Nc2nc(N[C@@H]3CCCC[C@@H]3N)cnc2C(N)=O)c1F [Example 138]
Result block: 1 to 10 nM

Query block: Please provide the recorded IC50 for NC(=O)c1ncc(N[C@@H]2CCCC[C@@H]2N)nc1Nc1cc(C2CC2)no1 [Example 231] , tested on full length active recombinant SYK enzyme (Homo sapiens, UniProt P43405).
Result block: 10 to 100 nM

Query block: Query the reported IC50 for full length active recombinant SYK enzyme (Homo sapiens, UniProt P43405); item: NC(=O)c1ncc(N[C@@H]2CCCC[C@@H]2N)nc1N[C@H]1COc2ccccc2C1 [Example 415]
Result block: 10 to 100 nM

Query block: Which IC50 is reported with full length active recombinant SYK enzyme (Homo sapiens, UniProt P43405) for this entry: NC(=O)c1ncc(N[C@@H]2CCCC[C@@H]2N)nc1Nc1ccc(N2CCOCC2)c(F)c1 [Example 439] ?
Result block: 1 to 10 nM

Query block: Request: IC50, test system full length active recombinant SYK enzyme (Homo sapiens, UniProt P43405), entry CN(C)C(=O)c1ccc(Nc2nc(N[C@@H]3CCCC[C@@H]3N)cnc2C(N)=O)cc1 [Example 277]
Result block: 10 to 100 nM

Query block: Recall the recorded IC50 for CC(C)(C)c1cc(Nc2nc(N[C@H](CC3CC3)C(N)=O)cnc2C(N)=O)sn1 [Example 229] with full length active recombinant SYK enzyme (Homo sapiens, UniProt P43405) and state it.
Result block: 10 to 100 nM
